assayed.system: Phospholipid hydroperoxide glutathione peroxidase GPX4 (Homo sapiens)
assay.protocol: Primary qHTS Assay for Inhibitors of Recombinant Selenoprotein Glutathione Peroxidase 4 (GPX4) (AID 1845192); note: nearly all actives have a fitted effect of over 65% in size
experimental.context: recombinant GPX4, GR-coupled NADPH fluorescence, 15 min; series mostly up to 50 µM
Results filed as inconclusive are left out. Active and inactive are the calls of the source. Calls come from the whole dose curve; as a rule, active = well fitted inhibition curve with a large enough effect; inconclusive = small, poorly fitted or top-dose-only effect; inactive = flat fitted curve, though single readings scatter.
measured.property: outcome

COc1ccc(C(=O)c2ccccc2)c(O)c1	inactive
CC1=C(C(=O)O)N2C(=O)[C@@H](NC(=O)[C@H](N)c3ccccc3)[C@H]2SC1	inactive
C[C@H]1O[C@@H](O[C@H]2CC[C@@]3(C)[C@H](CC[C@@H]4[C@@H]3C[C@@H](O)[C@]3(C)[C@@H](C5=CC(=O)OC5)CC[C@]43O)C2)C[C@H](O)[C@@H]1O[C@H]1C[C@H](O)[C@H](O[C@H]2C[C@H](O)[C@H](O[C@@H]3O[C@H](CO)[C@@H](O)[C@H](O)[C@H]3O)[C@@H](C)O2)[C@@H](C)O1	inactive

* * *

assay.protocol: Drug repurposing screens with cells derived from glioblastoma tumor samples (AID 1345199); note: % is set by controls: 0 for no effect and ±100 for the full control effect; nearly all actives have a fitted effect of over 40% in size
experimental.context: GBM patient neurospheres viability, ATP luminescence, 48 h; at 46.1 µM (top of the series); tumour line C
Inconclusive results are not listed.
Listing of recorded activity, negative = cell killing by entry.
Express your answer in %, writing the number without its unit.

Recorded activity, negative = cell killing, per entry:
CCCCN1C[C@H](O)[C@@H](O)[C@H](O)[C@H]1CO	-21.4
CN1CCN(c2c(F)cc3c(=O)c(C(=O)O)cn4c3c2SCC4)CC1	-19.6
CCCCCCCCCCCCCCCCO	3.59
Cc1cccc(C)c1NC(=O)CN1CCCCCC1	-16.8
CCN(CC)CCNC(=O)c1cc(Br)c(N)cc1OC	-28.9

For record C=CCN1CCc2nc(N)sc2CC1 the listed activity, negative = cell killing is -3.6

Reported activity, negative = cell killing ( C#C[C@]1(OC(C)=O)CC[C@H]2[C@@H]3CCC4=C/C(=N/O)CC[C@@H]4[C@H]3CC[C@@]21CC ) = -21.9

* * *

Tested on: CP215
assay.protocol: qHTS profiling for inhibitors of Plasmodium falciparum proliferation (AID 504749); note: nearly all actives have a fitted effect of over 60% in size
experimental.context: P. falciparum in erythrocytes, SYBR Green DNA, 72 h; series mostly up to 28.7 µM
Inconclusive results are not listed. The source made the active and inactive calls. The call rests on the fitted dose curve; in most records, active means well fitted inhibition curve with a large enough effect; inconclusive means small, poorly fitted or top-dose-only effect; inactive means flat fitted curve, though single readings scatter.
Log the outcome using a class from yes (1) for active, no (0) for inactive

Examples with answers:
CCCCCCCCCCCCCC[N+](C)(C)Cc1ccccc1	yes (1)
CCCCCCCCCCCCCC(=O)OC(C)C	no (0)
CC(=O)NC(=O)c1ccccc1O	no (0)
O=C(O)C1(C(=O)O)CCC1.[NH2-].[NH2-].[Pt+2]	no (0)
c1ccc(CC2=NCCN2)cc1	no (0)

Would you mind telling me which call this test gave O=C(O)CCNC(=O)c1ccccc1 ?
no (0)

Identify the outcome logged in this assay for the compound shown: COc1ccc2c(c1)c1c3n2CCN(C)C3=NCC1
no (0)

Kindly provide the recorded test outcome for the following compound: COc1cc(C(=O)N2CCCCCCC2)cc(OC)c1OC
no (0)

I'd appreciate the recorded outcome for OC[C@H]1O[C@@H]2O[C@H]3[C@H](O)[C@@H](O)[C@@H](O[C@H]4[C@H](O)[C@@H](O)[C@@H](O[C@H]5[C@H](O)[C@@H](O)[C@@H](O[C@H]6[C@H](O)[C@@H](O)[C@@H](O[C@H]7[C@H](O)[C@@H](O)[C@@H](O[C@H]8[C@H](O)[C@@H](O)[C@@H](O[C@H]1[C@H](O)[C@H]2O)O[C@@H]8CO)O[C@@H]7CO)O[C@@H]6CO)O[C@@H]5CO)O[C@@H]4CO)O[C@@H]3CO from this test.
no (0)

Name the outcome recorded for COc1cc([C@H]2Oc3cc([C@H]4Oc5cc(O)cc(O)c5C(=O)[C@@H]4O)ccc3O[C@@H]2CO)ccc1O in the assay.
no (0)

* * *

assay.protocol: Cellular Toxicity (caspase-3) SK-N-SH (AID 661);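 note: cells exposed to compound for 16 hours; 0% = DMSO basal and 100% = 10 µM staurosporine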
experimental.context: SK-N-SH caspase-3 activation, qHTS, DMSO as zero, staurosporine as full; series mostly up to 91.7 µM
Calls of active or inactive are those of the source. Calls follow the shape of the dose curve; as a rule, active = well fitted activation curve with a large enough effect; inconclusive = small, poorly fitted or top-dose-only effect; inactive = flat fitted curve, though single readings scatter.
measured.property: outcome

COc1ccc(C(Cl)=C(c2ccc(OC)cc2)c2ccc(OC)cc2)cc1	inactive
Oc1ccc(Cl)cc1Cc1cc(Cl)ccc1O	inactive
C/C=C/c1ccc(O)c(OC)c1	inactive

* * *

Tested on: CP185
assay.protocol: qHTS profiling for inhibitors of Plasmodium falciparum proliferation (AID 504749); note: nearly all actives have a fitted effect of over 60% in size
experimental.context: P. falciparum in erythrocytes, SYBR Green DNA, 72 h; series mostly up to 28.7 µM
Procedure: NIH National Institute of Allergy and Infectious Diseases [NIAID] NIH Chemical Genomics Center [NCGC] […] Because mature erythrocytes lack DNA, only Plasmodium-derived DNA is detected. NCGC Assay Protocol Summary: The SYBR Green viability assay was adapted from a method described previously (Plouffe et al., 2008). […] The following morning, fluorescence intensity at 485(14) nm excitation and 535(25) nm emission wavelengths was measured on an EnVision (Perkin Elmer) plate reader. […]
Results filed as inconclusive are left out. Calls of active or inactive are those of the source. Calls follow the shape of the dose curve; as a rule, active = well fitted inhibition curve with a large enough effect; inconclusive = small, poorly fitted or top-dose-only effect; inactive = flat fitted curve, though single readings scatter.
Mark one answer only. Choices: label 1 for active, label 0 for inactive

C/C=C/C=N/NC(=O)c1ccncc1	label 0

I would be grateful if you could indicate the recorded call for NS(=O)(=O)Cc1noc2ccccc12 .
label 0

Which outcome was assigned to CCCCN=C(N)N=C(N)N in this test?
label 0

* * *

assay.protocol: qHTS of pediatric cancer cell lines to identify multiple opportunities for drug repurposing: Primary screen for MG 63 (6-TG R) cells (AID 1347105); note: nearly all actives have a fitted effect of over 50% in size
experimental.context: MG 63 (6-TG R) viability, CellTiter-Glo, 48 h; series mostly up to 46 µM
Experimental: Drug repurposing or repositioning has been offered as a strategy for drug development in oncology programs. This approach has special potential for childhood cancers and other rare or orphan diseases, where the expected return on new drug development has been a disincentive to pharmaceuticals. […] We employed a titration-based paradigm (quantitative high-throughput screening or qHTS), where all compounds were tested at multiple concentrations for their effect on cell viability. […]
Inconclusive results are not listed. The source made the active and inactive calls. Calls follow the shape of the dose curve; as a rule, active = well fitted cell-killing curve with a large enough effect; inconclusive = small, poorly fitted or top-dose-only effect; inactive = no such curve, though single readings can be large or run the other way.
# valid calls are active, inactive; nothing else

C[C@]12CCC(=O)C=C1C=C[C@@H]1[C@@H]2CC[C@@]2(C)[C@H]1CC[C@@]21CCC(=O)O1	inactive
CC(C)CCCC(C)N (stereo unspecified)	inactive
CCN1/C(=C/C=C/c2sc3ccccc3[n+]2CC)Sc2ccccc21	active
Cc1ccc(-c2ncc(Cl)cc2-c2ccc(S(C)(=O)=O)cc2)cn1	inactive
Oc1c(Cl)cc(Cl)c(Cl)c1Cc1c(O)c(Cl)cc(Cl)c1Cl	active

Now turn to the next compound.
For NS(=O)(=O)c1cc2c(cc1Cl)NC(CC1CCCC1)NS2(=O)=O (stereo unspecified) , what call appears in the results of this test?
inactive

* * *

Test system: HeLa
assay.protocol: Primary qHTS to identify gynecologic anti-cancer compounds using libraries of approved drugs and bioactive compounds (AID 1345084); note: nearly all actives have a fitted effect of over 55% in size
experimental.context: Gynecologic cancer cell panel viability, ATPlite luminescence, 48 h; series mostly up to 57.5 µM
Records with an inconclusive call do not appear. Active and inactive are the calls of the source. Calls follow the shape of the dose curve; as a rule, active = well fitted cell-killing curve with a large enough effect; inconclusive = small, poorly fitted or top-dose-only effect, or effect the other way; inactive = flat fitted curve, though single readings scatter.
Outcome (select one): yes (1) = active, no (0) = inactive

See these solved cases before continuing.
COc1cc(C(=S)N2CCOCC2)ccc1O	no (0)
O=[N+]([O-])c1ccc(/C=N\O)o1	no (0)
CC(=O)Nc1ncc([N+](=O)[O-])s1	no (0)
CCOc1ccccc1C(N)=O	no (0)
C#C[C@]1(O)CC[C@H]2[C@@H]3CCC4=Cc5oncc5C[C@]4(C)[C@H]3CC[C@@]21C	yes (1)

Please state the recorded outcome for this molecule: O=C(O)CCNC(=O)c1ccccc1
no (0)

I would be grateful if you could indicate the recorded call for CCc1ccc(C(=O)C(C)CN2CCCCC2)cc1 (configuration not stated) .
no (0)

I would be grateful if you could indicate the recorded call for CCCCNc1ccc(C(=O)OCCOCCOCCOCCOCCOCCOCCOCCOCCOC)cc1 .
no (0)

Could you please tell me the result logged for CCCCOC(=O)CC(CC(=O)OCCCC)(OC(C)=O)C(=O)OCCCC in this assay?
no (0)

Give the logged outcome of this assay for the following molecule: CC1(COc2ccc(CC3SC(=O)NC3=O)cc2)CCCCC1 (configuration not stated)
no (0)

Call for entry NC(N)=NN=C(/C=C/c1ccc([N+](=O)[O-])o1)/C=C/c1ccc([N+](=O)[O-])o1 :
yes (1)

Recorded test outcome, item CCNC(=O)NCc1cccc(Cl)c1
no (0)

* * *

Tested on: CP268
assay.protocol: qHTS profiling for inhibitors of Plasmodium falciparum proliferation (AID 504749); note: nearly all actives have a fitted effect of over 60% in size
experimental.context: P. falciparum in erythrocytes, SYBR Green DNA, 72 h; series mostly up to 28.7 µM
Results filed as inconclusive are left out. Activity calls are given as the source filed them. Calls follow the shape of the dose curve; as a rule, active = well fitted inhibition curve with a large enough effect; inconclusive = small, poorly fitted or top-dose-only effect; inactive = flat fitted curve, though single readings scatter.
Please state which outcome applies, choosing from T for active, F for inactive

These solved cases illustrate the format of a correct answer.
NC(=S)N/N=C/c1cccnc1	F
C#C[C@]1(O)CC[C@H]2[C@@H]3CCC4=CC(=O)CC[C@@H]4[C@H]3CC[C@@]21CC	F

What outcome does the record of this test show for c1ccc(-c2nc[nH]c2-c2ccccc2)cc1 ?
F

Could you please tell me the result logged for CCNC(=O)NCc1cccc(Cl)c1 in this assay?
F

Tell me the recorded outcome of this test for Oc1ccc(Cl)cc1Cc1cc(Cl)ccc1O .
F

Given CC(C)(C)CC(C)(C)c1ccc(O)c(-n2nc3ccccc3n2)c1 , state the outcome it received in this test.
F

I'd appreciate the recorded outcome for CCCCCCCC/C=C\CCCCCCCCN from this test.
F

Per the assay record, what outcome was assigned to CCCCCCCCCCCCOCCOCCOCCOCCOCCOCCOCCOCCOCCO ?
F

Any idea what this test logged for CCCN(CCc1cccs1)[C@H]1CCc2c(O)cccc2C1 ?
T

Hello, I am checking results. What call was entered for C=C[C@@]1(C)CC(=O)[C@]2(O)[C@@]3(C)[C@@H](O)CCC(C)(C)[C@@H]3[C@H](O)[C@H](OC(C)=O)[C@@]2(C)O1 ?
F

Write down the call the test reported for this molecule. Item: COc1cc(NS(=O)(=O)c2ccc(N)cc2)ncn1
F

What classification did COc1ccc(C(=O)c2ccccc2O)c(O)c1 end up with in this test?
F

What classification did CCC(CC)(CC(=O)Nc1cccc(/C=C/c2nc(C3CCC3)cs2)c1)C(=O)O end up with in this test?
F

Hi, sorry to bother you, what did the test record for CCCCNC(=O)NS(=O)(=O)c1ccc(N)cc1 ?
F

# fetch the recorded call for Cc1ccc(S(=O)(=O)NC(=O)NC2CCCC2)cc1 here
F

Recorded call for OC1C(O)C(O)C(O)C(O)C1O (stereo not given) ?
F

Identify the outcome logged in this assay for the molecule shown: NC(=O)c1ccccc1O
F

Dear colleague, could you share the recorded outcome for NS(=O)(=O)c1ccc(Cl)c(S(N)(=O)=O)c1 when you have a moment?
F

Which outcome was entered for the molecule CC(=O)O[C@H]1C[C@@H]2CC[C@@H]3[C@H](CC[C@@]4(C)[C@H]3C[C@H]([N+]3(C)CCCCC3)[C@@H]4OC(C)=O)[C@@]2(C)C[C@@H]1N1CCCCC1 in this test?
F

Outcome? N=C(N)N1CCc2ccccc2C1
F

Hello, I am checking results. What call was entered for COc1ccc2c(c1)c1c3n2CCN(C)C3=NCC1 ?
F

Hi, sorry to bother you, what did the test record for NC(N)=NCc1cccc(I)c1 ?
F

Write down the call the test reported for this molecule. Item: CCCCCCCCCCCCCCCCO
F

// param item: Cc1c(-c2ccccc2)oc2c(C(=O)OCCN3CCCCC3)cccc2c1=O ; yields the recorded call
F

I'd appreciate the recorded outcome for O=C(O)CCNC(=O)c1ccccc1 from this test.
F
